- System: Trypanosoma brucei brucei
- testProtocol: Antitrypanosomal activity against bloodstream form of Trypanosoma brucei brucei assessed as inhibition of growth in log phase at 1 uM after 48 hrs by Cell Titer Blue end-point assay
- testContext: read-out: GI
testReadout: inhibition of growth at 1 µM

Q: Item under review: CN1CCN(c2ccc(C(=O)Nc3n[nH]c4c3CN(C(=O)Cc3c(F)ccc(F)c3F)C4)cc2)CC1 . Reported inhibition of growth at 1 µM?
Ans: > 60%

Q: Item under review: Cc1cc(C)cc(CC(=O)N2Cc3[nH]nc(NC(=O)c4ccc(N5CCN(C)CC5)cc4)c3C2)c1 . Reported inhibition of growth at 1 µM?
Ans: > 60%

Q: Item under review: CC(C)C(C(=O)N1Cc2[nH]nc(NC(=O)c3ccc(N4CCN(C)CC4)cc3)c2C1)c1ccccc1 (racemic) . Reported inhibition of growth at 1 µM?
Ans: > 60%

###

- testProtocol: Selectivity ratio of EC50 for human MOLT4 cells to EC50 for bloodstream form of Trypanosoma brucei rhodesiense YTat1.1
- Assay type: ADME, cell-based, MOLT-4
- testContext: read-out: Ratio EC50
Answer each item with its documented selectivity ratio.
Write the number on its own, no unit after it.

Q: Item under review: CN1CCN(c2ccc(C(=O)Nc3n[nH]c4c3CN(C(=O)Cc3c(F)ccc(F)c3F)C4)cc2)CC1 . Reported selectivity ratio?
Ans: 6.9

Q: Item under review: CC(C)C(C(=O)N1Cc2[nH]nc(NC(=O)c3ccc(N4CCN(C)CC4)cc3)c2C1)c1ccccc1 (racemic) . Reported selectivity ratio?
Ans: 6.3

Q: Item under review: CCc1cccc(CC)c1NC(=O)N1Cc2n[nH]c(NC(=O)c3ccc(N4CCN(C)CC4)cc3)c2C1 . Reported selectivity ratio?
Ans: 0.18

Q: Item under review: CN1CCN(c2ccc(C(=O)Nc3n[nH]c4c3CN(C(=O)Cc3cc(F)cc(F)c3F)C4)cc2)CC1 . Reported selectivity ratio?
Ans: 1.2

Q: Item under review: Cc1cc(C)cc(CC(=O)N2Cc3[nH]nc(NC(=O)c4ccc(N5CCN(C)CC5)cc4)c3C2)c1 . Reported selectivity ratio?
Ans: 4.3

###

- System: Trypanosoma brucei
- testProtocol: Inhibition of NH3-AU1 epitope-tagged recombinant Trypanosoma brucei AUK1 expressed in procyclic form trypanosome AnTat1.1 assessed as decrease in myelin basic protein phosphorylation at 500 nM preincubated for 5 mins by pull down assay in presence of [gamma-32P]ATP
Activity calls are given as the source filed them. No cut-off for these calls is given here.
Hi there, use one of these labels in your reply, thanks! active, inactive

Q: I would be grateful if you could indicate the recorded call for Cc1ccc(S(=O)(=O)N2Cc3[nH]nc(NC(=O)c4ccc(N5CCN(C)CC5)cc4)c3C2)cc1 .
Ans: active

Q: I would be grateful if you could indicate the recorded call for CN1CCN(c2ccc(C(=O)Nc3n[nH]c4c3CN(C(=O)Nc3ccccc3)C4)cc2)CC1 .
Ans: active

Q: I would be grateful if you could indicate the recorded call for CCS(=O)(=O)Nc1ccc2c(c1)/C(=C(/Nc1ccc(CN3CCCCC3)cc1)c1ccccc1)C(=O)N2 .
Ans: active

Q: I would be grateful if you could indicate the recorded call for CN1CCN(c2ccc(C(=O)Nc3n[nH]c4c3CN(C(=O)c3ccccc3)C4)cc2)CC1 .
Ans: inactive

Q: I would be grateful if you could indicate the recorded call for CCc1cccc(CC)c1NC(=O)N1Cc2[nH]nc(NC(=O)c3ccc(N4CCN(C)CC4)cc3)c2C1 .
Ans: active

Q: I would be grateful if you could indicate the recorded call for CO[C@@H](C(=O)N1Cc2[nH]nc(NC(=O)c3ccc(N4CCN(C)CC4)cc3)c2C1)c1ccccc1 .
Ans: active
